# Assay system: T1, human BDCA2 (human, UniProt Q8WTT0 1-213)
# T1 construct: whole, on cells; also called hBDCA2; Blood dendritic cell antigen 2
# T1 sequence (looked up): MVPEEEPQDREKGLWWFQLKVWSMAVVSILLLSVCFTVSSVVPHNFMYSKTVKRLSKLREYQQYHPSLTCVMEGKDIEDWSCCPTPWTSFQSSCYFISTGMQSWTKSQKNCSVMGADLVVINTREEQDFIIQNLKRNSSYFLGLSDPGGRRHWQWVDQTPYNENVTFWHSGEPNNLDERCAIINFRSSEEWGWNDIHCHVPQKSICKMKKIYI
# Experimental details: FACS on CHOK1-hBDCA2 cells; EC50 table under the plot, unit from the x axis (nM) [continued) d.]
Outcome measure: EC50 (nM)
Answers are plain numbers, in nM.

Some solved cases for reference:
Binder: mAb026 (antibody, V domains shown, Mouse hybridoma antibody) VH: DVQLQESGPGLVKPSQSLSLTCSVTGYSITSAYYWNWIRQFPGHKLEWMGYISYDGSNNYNPSLKNRISITRDTSKNQFFLKLNSVTTEDTATYHCARGVDYPNAIDWWGQGTSLTVSS VL: DIVLTQSPTSLTVSLGQRATISCRASESVSIHGTHLMHWYQQKPGQPPKLLIYVASYLESGVPARFSGSGSETDFSLNIHPVEEEDAATYFCQQSFEDPWTFGGGTKLEIK
EC50 (nM): 0.773
//
Binder: mAb019 (antibody, V domains shown, Mouse hybridoma antibody) VH: EVKLVESGGDLVQPGGSLKLSCAASGFTFSDYYMYWVRQTPEKRLEWVAYISYSGDSTYYPDTVKGRFTISRDNAKNTLFLQMSRLKSEDTAMYYCARHSPSFPYYFDYWGQGTALTVSS VL: EIVLTQSPAITAASLGQKVTITCSASSSVSYMHWYQQKSGTSPKPWIYEISKLASGVPARFSGSGSGTSYSLTISSMEAEDAAIYYCQLWNYPLITFGGGTNLEIK
EC50 (nM): 0.271
//
Binder: mAb021 (antibody, V domains shown, Mouse hybridoma antibody) VH: DVQLQESGPGLVKPSQSLSLTCSVTGYSITSAYYWNWIRQFPGNKLECMGYITYDGNNYYSPSLKNRISITRDTSKNQFFLNLNSVTTEDTATYFCARGGDYDDGGFAFWGQGTLVTVSA VL: DIQMTQSPASLSASVGETVTITCRASGNIHNYLAWYHQKQGKSPQLLVYNAKSLVDGVPSRFSGSGSGTQYSLRINSLQPEDFGSYYCQHFWIVPYTFGGGTKLEII
EC50 (nM): 0.328

Switching to the query record.
In: # input binder: mAb024 (antibody, V domains shown, Mouse hybridoma antibody) VH: EVQLVESGGDLVKPGGSLKLSCAASGFTFSSFGMSWVRQTPDKRLDWVATISSGDSYTYYPDSVKGRFSISRDNAKNTLYLQMSSLKSEDTAVYYCARQIYYDYAYYFDYWGQGTTLTVSS VL: DIVLTQSPASLAVSLGQRATISCRASESVSFRSSHLMHWYRQKPGQPPKLLIYAASNLESGVPARFSGSGSETDFTLNIHPVEEEDAAAYFCQQSIEDPPTFGGGTKLEIK ; wanted: its EC50
Out: 0.343
